# assay info: Hydrodynamic diameter and colloidal stability of aggregates by dynamic light scattering
# Format: physicochemical
# assay setup: 5 μM in PBS from DMSO stock, 37 °C
Recorded mean size (hydrodynamic diameter), one value per entry.
Express it in nm; write the number only.

Use these answered entries as a reference point.
CC1=C(/C=C/C(C)=C/C=C/C(C)=C/C=C/C=C(C)/C=C/C=C(C)/C=C/C2=C(C)C[C@@H](OC(=O)CCC(=O)O)CC2(C)C)C(C)(C)C[C@H](OC(=O)CCC(=O)O)C1 [Compound 7, Zeaxanthin bissuccinate] :: 238.20
COc1ccc2[nH]cc(CCNC(=O)CNC(=O)CCC(=O)O[C@@H]3CC(C)=C(/C=C/C(C)=C/C=C/C(C)=C/C=C/C=C(C)/C=C/C=C(C)/C=C/C(=O)[C@]4(C)C[C@@H](OC(=O)CCC(=O)NCC(=O)NCCc5c[nH]c6ccc(OC)cc56)CC4(C)C)C(C)(C)C3)c2c1 [Compound 17, Capsanthin-dimelatonin conjugate] :: 236.60
CC1=C[C@H](OC(=O)CCC(=O)O)CC(C)(C)[C@H]1/C=C/C(C)=C/C=C/C(C)=C/C=C/C=C(C)/C=C/C=C(C)/C=C/C1=C(C)C[C@@H](OC(=O)CCC(=O)O)CC1(C)C [Compound 10, Lutein bissuccinate] :: 29.2

Now look at this one.
Problem: Recorded mean size (hydrodynamic diameter) for CC1=C(/C=C/C(C)=C/C=C/C(C)=C/C=C/C=C(C)/C=C/C=C(\C)COC(=O)CCC(=O)O)C(C)(C)CCC1 [Compound 6, 8′-Apo-β-carotenol succinate] , please?
Result: 144.20

----------
# assay info: Hydrodynamic diameter and colloidal stability of aggregates by dynamic light scattering
# Format: physicochemical
# assay setup: 3.75 μM in PBS from DMSO stock, 37 °C
assay readout: mean size (hydrodynamic diameter) (nm)
Express it in nm; write the number only.

CC1=C[C@H](OC(=O)CCC(=O)O)CC(C)(C)[C@H]1/C=C/C(C)=C/C=C/C(C)=C/C=C/C=C(C)/C=C/C=C(C)/C=C/C1=C(C)C[C@@H](OC(=O)CCC(=O)O)CC1(C)C [Compound 10, Lutein bissuccinate] :: 143.8

Now look at this one.
Problem: Recorded mean size (hydrodynamic diameter) for COc1ccc2[nH]cc(CCNC(=O)CNC(=O)CCC(=O)O[C@@H]3CC(C)=C(/C=C/C(C)=C/C=C/C(C)=C/C=C/C=C(C)/C=C/C=C(C)/C=C/C4C(C)=C[C@@H](OC(=O)CCC(=O)NCC(=O)NCCc5c[nH]c6ccc(OC)cc56)CC4(C)C)C(C)(C)C3)c2c1 (some centres unmarked) [Compound 16, Lutein-bismelatonin conjugate] , please?
Result: 39.28

----------
Recorded zeta potential, one value per entry.
# assay info: Hydrodynamic diameter and colloidal stability of aggregates by dynamic light scattering
# Type: physicochemical
# assay setup: 1.25 μM in PBS from DMSO stock, 37 °C
Express it in mV; write the number only.

Use these answered entries as a reference point.
CC1=C(/C=C/C(C)=C/C=C/C(C)=C/C=C/C=C(C)/C=C/C=C(C)/C=C/C2=C(C)C[C@@H](OC(=O)CCC(=O)O)CC2(C)C)C(C)(C)C[C@H](OC(=O)CCC(=O)O)C1 [Compound 7, Zeaxanthin bissuccinate] :: 21.1
COc1ccc2[nH]cc(CCNC(=O)CNC(=O)CCC(=O)O[C@@H]3CC(C)=C(/C=C/C(C)=C/C=C/C(C)=C/C=C/C=C(C)/C=C/C=C(C)/C=C/C4=C(C)C[C@@H](O)CC4(C)C)C(C)(C)C3)c2c1 [Compound 13, Zeaxanthin-monomelatonin conjugate] :: 2.2
CC1=C(/C=C/C(C)=C/C=C/C(C)=C/C=C/C=C(C)/C=C/C=C(C)/C=C/C2=C(C)C[C@@H](OC(=O)CCC(=O)O)CC2(C)C)C(C)(C)C[C@H](O)C1 [Compound 11, Zeaxanthin monossuccinate] :: 80.5
CC1=C(/C=C/C(C)=C/C=C/C(C)=C/C=C/C=C(C)/C=C/C=C(C)/C=C/C2=C(C)C[C@@H](OC(=O)CCC(=O)O)CC2(C)C)C(C)(C)CCC1 [Compound 8, β-Cryptoxanthin succinate] :: 21

Now look at this one.
Problem: Recorded zeta potential for COc1ccc2[nH]cc(CCNC(=O)CNC(=O)CCC(=O)OC/C(C)=C/C=C/C(C)=C/C=C/C=C(C)/C=C/C=C(C)/C=C/C3=C(C)CCCC3(C)C)c2c1 [Compound 18, 8′-Apo-β-carotenol-melatonin conjugate] , please?
Result: −24.5
